Data credit: patent US7795261B2

# assay.target: NK3 (Homo sapiens, UniProt P29371)
# Sequence (P29371 whole entry): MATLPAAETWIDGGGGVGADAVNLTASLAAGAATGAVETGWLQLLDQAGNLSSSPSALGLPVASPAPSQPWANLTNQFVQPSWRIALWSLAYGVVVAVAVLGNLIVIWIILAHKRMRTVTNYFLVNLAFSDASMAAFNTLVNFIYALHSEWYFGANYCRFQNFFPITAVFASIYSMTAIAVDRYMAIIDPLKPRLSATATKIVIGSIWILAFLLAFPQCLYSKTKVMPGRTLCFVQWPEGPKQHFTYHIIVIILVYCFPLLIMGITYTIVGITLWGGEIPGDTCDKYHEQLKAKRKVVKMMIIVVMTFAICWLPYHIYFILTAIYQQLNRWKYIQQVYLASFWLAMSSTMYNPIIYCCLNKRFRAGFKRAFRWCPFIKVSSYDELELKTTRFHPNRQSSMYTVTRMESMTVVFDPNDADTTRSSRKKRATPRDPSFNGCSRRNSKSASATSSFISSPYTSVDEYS
# test: Signal transduction (ST), intracellular Ca++ (FLIPR), NK3
# Format: cell-based
# test.settings: read-out: pIC50 NK3 (converted)
readout.label: IC50 (µM)
Give the quantity in µM, number only.

Please review the following examples before continuing.
[ask] Please report the recorded IC50 for Cc1nccn1C(C(=O)N1CCC(N2CCN(C3CCN(C(=O)c4cc(C(F)(F)F)cc(C(F)(F)F)c4)C(Cc4ccccc4)C3)CC2)C1)c1ccccc1 (stereo not drawn) .
[reply] 5.01

[ask] Please report the recorded IC50 for CC1(C)OCC(CNC(=NC#N)N2CCC(N3CCN(C4CCN(C(=O)c5cc(C(F)(F)F)cc(C(F)(F)F)c5)C(Cc5ccccc5)C4)CC3)C2)O1 (stereo not drawn) .
[reply] 7.94

Shifting focus to the molecule that follows.
[ask] Please report the recorded IC50 for COc1ccccc1S(=O)(=O)N1CCC(N2CCN([C@H]3CCN(C(=O)c4cc(C(F)(F)F)cc(C(F)(F)F)c4)[C@H](Cc4ccccc4)C3)CC2)C1 (stereo partly drawn) .
[reply] 2
